- Test system: winter barley
- protocol: Test E winter barley
- Format: in vivo, Hordeum vulgare
- conditions: Preemergence, Rate 250 g/ha
Reported Barley (winter) plant response rating (0 to 100 scale) values follow for various compounds

Cc1ccccc1-n1c(=O)on(C(=O)N(c2ccccc2F)C(C)C)c1=O: 50
CC(C)N(C(=O)n1oc(=O)n(CCCl)c1=O)c1ccc(F)cc1: 10
CC1CCCCC1n1c(=O)on(C(=O)N(c2ccc(F)cc2)C(C)C)c1=O (stereo not shown): 30

Please examine the following record next.
Entry Cc1ccccc1-n1c(=O)on(C(=O)N(c2cccc(F)c2)C(C)C)c1=O has what Barley (winter) plant response rating (0 to 100 scale)? 30

----------
Attribute: Soybean plant response rating
- Test system: soybean
- protocol: Test B pre/postemergence soybean
- Format: in vivo, Glycine max
- conditions: Rate 62 g/ha, Postemergence; scale 0 to 10, 0 no effect, 10 complete control
Hey, just send me the number, nothing else.

Answered examples (3):
CC(C)N(C(=O)n1oc(=O)n(-c2ccc3ccccc3c2)c1=O)c1ccccc1 [Compound 332]: 2
CC(C)N(C(=O)n1oc(=O)n(C(C)CCl)c1=O)c1ccc(Cl)cc1 (stereo not shown) [Compound 456]: 1
CC(C)N(C(=O)n1oc(=O)n(CCl)c1=O)c1ccc(F)cc1F [Compound 437]: 0

Consider now this further molecule.
May I ask what Soybean plant response rating has been recorded for CC(C)N(C(=O)n1oc(=O)n(CC(=O)C2CC2)c1=O)c1ccc(F)cc1 [Compound 488] ? 4

----------
- System: bamyardgrass
- protocol: Test B flood test barnyardgrass
- Assay type: in vivo, Echinochloa crus-galli
- conditions: Rate 125 g/ha; Postemergence section (flood test species); scale 0 to 10, 0 no effect, 10 complete control
quantity: Barnyardgrass plant response rating

Below, 3 molecules whose answers are already recorded.
CC(C)N(C(=O)n1oc(=O)n(-c2ccccc2Cl)c1=O)c1ccc(F)cc1: 0
Cc1nn(C)c(Cl)c1-n1c(=O)on(C(=O)N(c2ccc(F)cc2)C(C)C)c1=O: 0
CCN(C(=O)n1oc(=O)n(Cc2cccs2)c1=O)C1CCCCC1: 0

Reported Barnyardgrass plant response rating, molecule CC(C)N(C(=O)n1oc(=O)n(-c2cnn(C)c2)c1=O)c1ccc(F)cc1 : ____ 9

----------
Measured Giant foxtail plant response rating (0 to 10 scale), listed per entry.
- Test system: giant foxtail
- protocol: Test B pre/postemergence giant foxtail
- Format: in vivo, Setaria faberii
- conditions: Preemergence, Rate 125 g/ha; 0 is no effect, 10 is complete control
Note: the reply should be a number with no unit written.

CC(C)N(C(=O)n1oc(=O)n([C@H](C)c2ccccc2)c1=O)c1ccc(Cl)cc1: 4
CC1CCCCC1n1c(=O)on(C(=O)N(c2ccc(F)cc2)C(C)C)c1=O (centres unmarked): 9
CCOC(=O)Cn1c(=O)on(C(=O)N(c2ccc(F)cc2)C(C)C)c1=O: 0
Cc1ccccc1-n1c(=O)on(C(=O)N(c2ccc(S(C)(=O)=O)cc2)C(C)C)c1=O: 0

API: the following record is the query input.
Giant foxtail plant response rating (0 to 10 scale) lookup needed for Cc1ccccc1Cn1c(=O)on(C(=O)N(c2ccc(Cl)cc2)C(C)C)c1=O , thanks. 4

----------
Consider the following molecules and their measured Plant response rating, Redroot pigweed readings.
- Test system: pigweed
- protocol: Test B pre/postemergence pigweed
- Type: in vivo, Amaranthus retroflexus
- conditions: Preemergence, Rate 250 g/ha; scale 0 to 10 (0 no effect, 10 complete control)
// response body must contain only the number

CC(=O)N(C)CCn1c(=O)on(C(=O)N(c2ccc(F)cc2)C(C)C)c1=O: 4

Look at this molecule and give its reported Plant response rating, Redroot pigweed. CCOC(=O)CC(C(=O)OCC)n1c(=O)on(C(=O)N(c2ccccc2)C(C)C)c1=O (stereo not shown) 0

Quick one: Plant response rating, Redroot pigweed for C=C(Cn1c(=O)on(C(=O)N(c2ccccc2)C(C)C)c1=O)C(C)(C)C ? 0

Requested read-out: Plant response rating, Redroot pigweed. Entry: CC[C@@H](C)n1c(=O)on(C(=O)N(c2ccc(F)cc2F)C(C)C)c1=O 10
